Target: Potassium voltage-gated channel subfamily KQT member 2 (Rattus norvegicus) (UniProt O88943)
Sequence (O88943 whole entry, looked up): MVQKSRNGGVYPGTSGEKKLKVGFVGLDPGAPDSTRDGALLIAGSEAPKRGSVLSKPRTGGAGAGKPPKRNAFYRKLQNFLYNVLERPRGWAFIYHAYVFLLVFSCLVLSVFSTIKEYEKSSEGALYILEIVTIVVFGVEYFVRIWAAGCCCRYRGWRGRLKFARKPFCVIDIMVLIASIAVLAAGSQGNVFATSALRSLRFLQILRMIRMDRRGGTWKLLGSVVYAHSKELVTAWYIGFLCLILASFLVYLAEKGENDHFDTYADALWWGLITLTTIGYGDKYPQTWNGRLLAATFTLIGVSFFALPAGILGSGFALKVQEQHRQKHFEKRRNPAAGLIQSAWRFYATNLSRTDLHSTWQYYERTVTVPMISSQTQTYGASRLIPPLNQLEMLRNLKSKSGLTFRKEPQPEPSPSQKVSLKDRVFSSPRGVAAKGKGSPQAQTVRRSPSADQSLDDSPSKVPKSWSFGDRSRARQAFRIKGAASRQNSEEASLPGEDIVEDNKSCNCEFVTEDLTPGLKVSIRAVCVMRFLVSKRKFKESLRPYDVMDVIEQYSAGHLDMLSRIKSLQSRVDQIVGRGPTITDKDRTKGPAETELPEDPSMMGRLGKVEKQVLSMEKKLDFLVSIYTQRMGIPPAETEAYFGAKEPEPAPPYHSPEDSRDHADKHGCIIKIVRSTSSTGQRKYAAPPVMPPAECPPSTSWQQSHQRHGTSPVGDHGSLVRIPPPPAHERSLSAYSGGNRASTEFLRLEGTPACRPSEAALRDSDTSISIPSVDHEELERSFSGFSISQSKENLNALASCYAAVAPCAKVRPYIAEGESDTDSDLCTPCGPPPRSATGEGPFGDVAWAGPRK
Assay: KCNQ2 blockade in CHO cells – cell-based, FluxOR thallium flux, counter-screen for hERG block protector project, confirmation (AID 1946)
Details: FluxOR thallium flux fluorescence, at 10 µM, zero marks the 3-SD hit cutoff
Among all 2,400 compounds or so, about 180 (7.5%) were called active.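 The calls were made as follows: active = readout below zero, meaning a drop past 3 SD under the dofetilide-free negative control mean; inactive = the rest.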 Many of the other results were omitted from the sample, so actives are more common in it than they were.
Labels: active, inactive

> print(dat)
                                    compound  answer.label
 1  Cc1ccc(NS(=O)(=O)c2cn(C)c(=O)n(C)c2=O)c(C)c1      inactive
 2  O=C(COc1ccc(Cl)cc1Cl)NC(=S)N1CCCc2ccccc21      inactive
 3       Cc1cccc(NC(=S)NC(=O)c2ccc(Br)o2)c1C      inactive
 4          O=C(O)CSc1nc2ccccc2nc1Cc1ccccc1F      inactive
 5  O=C(NCc1cccs1)C1CCC(CNS(=O)(=O)c2cccs2)CC1 (stereo unspecified)        active
 6  COc1ccccc1NC(=O)C(=O)NNC(=O)COc1ccc2ccccc2c1      inactive
 7  O=C(CN1C(=O)S/C(=C\c2cc(Cl)c(O)c(Cl)c2)C1=O)Nc1ccccc1        active
 8  COc1ccc(-c2cc(=O)oc3cc(OCC(C)=O)ccc23)cc1        active
 9     O=c1c2c3c(sc2[nH]c(=S)n1Cc1ccco1)CCC3      inactive
10    CN(C)S(=O)(=O)c1cccc(C(=O)Nc2cccnc2)c1      inactive
11  CCn1c(=S)[nH]c2c(c1=O)C(C)(C)Cc1ccccc1-2      inactive
12  Cc1c(-c2ccn[nH]2)cc(NC(=O)c2ccc(Cl)cc2)c(=O)n1N        active
13        O=C(NC(=S)NCCc1ccccc1)c1cccc(Cl)c1      inactive
14  CN(C(=O)CSc1ncnc2sc(-c3ccccc3)cc12)C1CCS(=O)(=O)C1 (stereo unspecified)      inactive
15                    O=C(O)CSCc1c(F)cccc1Cl        active
16         Fc1cccc2sc(Nc3nc4c(F)cccc4s3)nc12      inactive
17       CNC(=O)CSc1nnc(-c2ccco2)n1-c1ccccc1      inactive
18  COC(=O)C1=NN(C(=O)c2cccc(Br)c2)C(O)(c2ccc(Cl)cc2)C1 (stereo unspecified)      inactive
19  O=C(CN1C(=O)S/C(=C\c2cccs2)C1=O)Nc1ccc(C(=O)O)c(O)c1      inactive
20     O=c1c(O)c(-c2ccc3c(c2)OCO3)oc2ccccc12      inactive
21  O=C(NC(=S)NNC(=O)[C@H]1C[C@@H]1c1ccccc1)c1cccc(F)c1        active
22      O=C(Nc1nc(=O)c2ccccc2s1)c1ccc(Cl)cc1      inactive
23  O=C(CSc1nnc(NC(=O)c2ccc(S(=O)(=O)N3CCOCC3)cc2)s1)Nc1ccccc1C(F)(F)F      inactive
24    Cc1ccc(C(=O)Nc2sc3c(c2C(=O)O)CCCCC3)o1        active
25  CCOC(=O)c1sc2nc(C)nc(SCC(=O)N(C)C3CCS(=O)(=O)C3)c2c1C (stereo unspecified)      inactive
26  Cc1ccc(/C(O)=C2\C(=O)C(=O)N(Cc3cccnc3)C2c2ccccc2[N+](=O)[O-])cc1 (stereo unspecified)        active
27  CCOC(=O)c1c(NS(C)(=O)=O)sc2c1CCC(C)C2 (stereo unspecified)      inactive
28  COc1ccc(-c2c(C)c3ccc(OCC(C)=O)cc3oc2=O)cc1      inactive
29  CCC1(C)Cc2c(sc3nc(SC)[nH]c(=S)c23)CO1 (stereo unspecified)      inactive
30  CSc1nc2c(c(=O)[nH]1)C(c1ccccc1Cl)CC(=O)N2 (stereo unspecified)      inactive
31        O=C(COc1ccccc1)NC(=S)N1CCc2ccccc21      inactive
32  CN(CC(=O)Nc1ccc(Cl)cc1)C(=O)c1cccc(S(=O)(=O)NCc2ccccc2)c1        active
33    Cc1cccc(OCC(=O)NC(=S)N2CCCc3ccccc32)c1        active
34          CCOC(=O)c1sc2nc(C)[nH]c(=S)c2c1C      inactive
35    O=c1c2ccc(Cl)cc2[nH]c(=S)n1CCC1=CCCCC1      inactive
36  CC1Cc2ccccc2N1C(=S)NC(=O)c1cccc(Br)c1 (stereo unspecified)      inactive
37    O=C(CCCOc1ccc(Cl)cc1Cl)Nc1ccccc1C(=O)O        active
38           O=c1[nH]c2ccccc2nc1C(F)(F)C(F)F      inactive
39  CCOc1ccc(C(C)NC(=S)NC2CCCCC2)cc1 (stereo unspecified)      inactive
40       Cc1ccc(C(=O)Nc2nc3ccccc3c(=O)s2)cc1      inactive
41   COc1cccc2sc(Nc3nnc(-c4ccc(F)cc4)o3)nc12      inactive
42           Cc1ccc(C(=O)Nc2nc(=O)n(C)s2)cc1      inactive
43           N#Cc1cc(-c2ccccc2)nnc1Oc1ccccc1        active
44  N#Cc1c(-c2ccc(Cl)cc2)cc(-c2cccs2)nc1SCC(=O)O        active
45  O=C(Nc1ccc(Oc2cccnc2)cc1)c1cccc([N+](=O)[O-])c1      inactive
46  Cc1nc(NCCc2ccc(S(N)(=O)=O)cc2)c2c(C)c(C)sc2n1      inactive

Value source: PubChem BioAssay AID1946
